- Test system: 242566-281-R-J2-PDC complex spheroid viability
- procedure_summary: Anticancer human tumor 242566-281-R-J2-PDC patient-derived pancreatic carcinoma cell line growth inhibition [CLK]; active = viability on the fitted dose curve at most 10% of control; inactive = the rest
- assay_context: second compound 0.1 µM; first compound 0.316 µM
Assign a class; possible classes are 1 = active, 0 = inactive

>>> label_value("COc1c(OCCCN2CCOCC2)ccc2c3n(c(=NC(=O)c4cnc(N)nc4)nc12)CCN3 + CNC(=O)c1ccc(Nc2nc(OC3CCCC3)c3c(-c4ccc5nc(C)oc5c4)c[nH]c3n2)c(OC)c1")
0
>>> label_value("CC(CO)NC(=O)c1cc(-c2ccc(Cl)cc2)nn(-c2cnn(C)c2)c1=O (stereo not drawn) + CN1CCN(c2cc(C(=O)Nc3cc4cc(-c5cnn(C)c5)ccc4cn3)ccn2)CC1")
0
>>> label_value("CC1(C)CCC(CN2CCN(c3ccc(C(=O)NS(=O)(=O)c4ccc(NCC5CCOCC5)c([N+](=O)[O-])c4)c(Oc4cnc5[nH]ccc5c4)c3)CC2)=C(c2ccc(Cl)cc2)C1 + CN1CCN(c2cc(C(=O)Nc3cc4cc(-c5cnn(C)c5)ccc4cn3)ccn2)CC1")
0
>>> label_value("CCc1c2c(nc3ccc(O)cc13)-c1cc3c(c(=O)n1C2)COC(=O)[C@]3(O)CC + CN1CCN(c2cc(C(=O)Nc3cc4cc(-c5cnn(C)c5)ccc4cn3)ccn2)CC1")
1
>>> label_value("CC1COCCN1c1cc(C2(S(C)(=N)=O)CC2)nc(-c2ccnc3[nH]ccc23)n1 (stereo not drawn) + CNC(=O)c1ccc(Nc2nc(OC3CCCC3)c3c(-c4ccc5nc(C)oc5c4)c[nH]c3n2)c(OC)c1")
0
>>> label_value("COC1C=CCC(C)C(C)S(=O)(=O)NC(=O)c2ccc3c(c2)N(CC2CCC21)CC1(CCCc2cc(Cl)ccc21)CO3 (stereo not drawn) + CNC(=O)c1ccc(Nc2nc(OC3CCCC3)c3c(-c4ccc5nc(C)oc5c4)c[nH]c3n2)c(OC)c1")
0

IN: Hi, do you know how C=CC(=O)N1CCN(c2nc(=O)n(-c3c(C)ccnc3C(C)C)c3nc(-c4c(O)cccc4F)c(F)cc23)C(C)C1 (stereo not drawn) + CNC(=O)c1ccc(Nc2nc(OC3CCCC3)c3c(-c4ccc5nc(C)oc5c4)c[nH]c3n2)c(OC)c1 came out in this test?
OUT: 0

IN: Hi, do you know how C#Cc1c(F)ccc2cc(O)cc(-c3ncc4c(N5CC6CCC(C5)N6)nc(OCC56CCCN5CC(F)C6)nc4c3F)c12 (stereo not drawn) + CN1CCN(c2cc(C(=O)Nc3cc4cc(-c5cnn(C)c5)ccc4cn3)ccn2)CC1 came out in this test?
OUT: 0

IN: Hi, do you know how Nc1ccn(C2OC(CO)C(O)C2(F)F)c(=O)n1 (stereo not drawn) + CN1CCN(c2cc(C(=O)Nc3cc4cc(-c5cnn(C)c5)ccc4cn3)ccn2)CC1 came out in this test?
OUT: 1

###

- System: 242566-281-R-J2-PDC complex spheroid viability
- procedure_summary: Anticancer human tumor 242566-281-R-J2-PDC cell line growth inhibition [CLK];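 also: spheroids exposed to compounds for 7 days before readout; 100% = DMSO vehicle control wells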
- assay_context: second compound 3.16 µM; first compound 0.1 µM; active compounds read low
Below, each entry is listed alongside its reported viability, T/C.
The reply should contain only the number, in %.

>>> observed("CC(CO)NC(=O)c1cc(-c2ccc(Cl)cc2)nn(-c2cnn(C)c2)c1=O (stereo not drawn) + CN1CCN(c2cc(C(=O)Nc3cc4cc(-c5cnn(C)c5)ccc4cn3)ccn2)CC1")
7.68
>>> observed("O=c1[nH]cc(F)c(=O)[nH]1 + CNC(=O)c1ccc(Nc2nc(OC3CCCC3)c3c(-c4ccc5nc(C)oc5c4)c[nH]c3n2)c(OC)c1")
50.7

Alright, here's another compound for you.
IN: Could you please provide reported viability, T/C for C=C(F)C(=O)N1CCN(c2nc(OCC3CCCN3C)nc3c2CCN(c2cccc4cccc(Cl)c24)C3)CC1CC#N (stereo not drawn) + CN1CCN(c2cc(C(=O)Nc3cc4cc(-c5cnn(C)c5)ccc4cn3)ccn2)CC1 ? Thanks!
OUT: 8.51
